- target of assay: human FXR (NR1H4) (Homo sapiens)
- Construct: host or cells: CHO (Chinese hamster ovary) cells
- Sequence (Q96RI1 whole entry): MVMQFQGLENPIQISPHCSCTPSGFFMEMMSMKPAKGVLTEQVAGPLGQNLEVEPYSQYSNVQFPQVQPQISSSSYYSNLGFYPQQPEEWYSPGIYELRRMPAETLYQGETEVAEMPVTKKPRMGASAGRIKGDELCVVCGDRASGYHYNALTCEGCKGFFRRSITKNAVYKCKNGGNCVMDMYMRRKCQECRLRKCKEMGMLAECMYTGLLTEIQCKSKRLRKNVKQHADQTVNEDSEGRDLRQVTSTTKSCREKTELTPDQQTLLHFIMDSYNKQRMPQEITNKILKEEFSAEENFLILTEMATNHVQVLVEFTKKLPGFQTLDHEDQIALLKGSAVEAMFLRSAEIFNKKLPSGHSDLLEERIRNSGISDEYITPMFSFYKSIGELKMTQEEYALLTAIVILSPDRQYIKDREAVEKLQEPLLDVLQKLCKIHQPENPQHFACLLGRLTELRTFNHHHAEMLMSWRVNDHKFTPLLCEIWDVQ
- test method notes: Human FXR (NR1H4) Assay (Gal4 promoter driven luciferase reporter, Indigo Bioscience kit IB00601)
- Assay type: cell-based
- details: normalized to CDCA set as 100%; CHO reporter cells expressing human NR1H4
Output 1 for records whose Efficacy (%) is lower than 200%, -1 for records at or above 200%.

{"given smiles": "CC[C@H]1[C@@H](O)[C@@H]2[C@H](CC[C@]3(C)[C@@H]([C@H](C)CCc4nnc(-c5ccccc5)s4)CC[C@@H]23)[C@@]2(C)CC[C@@H](O)C[C@@H]12", "target of assay": "human FXR (NR1H4) (Homo sapiens)", "category": -1}
{"given smiles": "CC[C@H]1[C@@H](O)[C@@H]2[C@H](CC[C@]3(C)[C@@H]([C@H](C)CCc4nnc(N)o4)CC[C@@H]23)[C@@]2(C)CC[C@@H](O)C[C@@H]12", "target of assay": "human FXR (NR1H4) (Homo sapiens)", "category": -1}
{"given smiles": "CC[C@H]1[C@@H](O)[C@@H]2[C@H](CC[C@]3(C)[C@@H]([C@H](C)CCc4nnc(C5CCCCC5)s4)CC[C@@H]23)[C@@]2(C)CC[C@@H](O)C[C@@H]12", "target of assay": "human FXR (NR1H4) (Homo sapiens)", "category": -1}

(Q) is_below(Efficacy (%), 200%) for CC[C@H]1[C@@H](O)[C@@H]2[C@H](CC[C@]3(C)[C@@H]([C@H](C)CCc4nc(C5CC5)no4)CC[C@@H]23)[C@@]2(C)CC[C@@H](O)C[C@@H]12 ?
(A) -1

(Q) is_below(Efficacy (%), 200%) for CC[C@H]1[C@@H](O)[C@@H]2[C@H](CC[C@]3(C)[C@@H]([C@H](C)Cc4nnc(-c5ccc(C(C)(C)C)cc5)o4)CC[C@@H]23)[C@@]2(C)CC[C@@H](O)C[C@@H]12 ?
(A) 1

* * *

- target of assay: human FXR (NR1H4) (Homo sapiens)
- Construct: host or cells: CHO (Chinese hamster ovary) cells
- test method notes: Human FXR (NR1H4) Assay (Gal4 promoter driven luciferase reporter, Indigo Bioscience kit IB00601)
- Type: cell-based
- details: normalized to CDCA set as 100%; CHO reporter cells expressing human NR1H4
measured parameter: Efficacy (%)
Reply numerically in %, unit not repeated.

// known answers, use as guide
{"given smiles": "CC[C@H]1[C@@H](O)[C@@H]2[C@H](CC[C@]3(C)[C@@H]([C@H](C)CCc4nnc(N(C)C)o4)CC[C@@H]23)[C@@]2(C)CC[C@@H](O)C[C@@H]12", "measured parameter": "Efficacy (%)", "recorded value": 265}
{"given smiles": "CC[C@H]1[C@@H](O)[C@@H]2[C@H](CC[C@]3(C)[C@@H]([C@H](C)CCc4nnc(-c5ccc(C(C)(C)C)cc5)s4)CC[C@@H]23)[C@@]2(C)CC[C@@H](O)C[C@@H]12", "measured parameter": "Efficacy (%)", "recorded value": 172}

Turning to the following compound.
(Q) Please supply the value of reported Efficacy (%) for the item CC[C@H]1[C@@H](O)[C@@H]2[C@H](CC[C@]3(C)[C@@H]([C@H](C)CCc4nnc(Cc5ccccc5)s4)CC[C@@H]23)[C@@]2(C)CC[C@@H](O)C[C@@H]12
(A) 378
